Give RCR for every item shown.
# Tested on: rat liver mitochondria (RLM)
# PROTOCOL_DETAILS: Mitochondrial respiration of isolated RLM (Clark-type oxygen electrode): RCR, ADP/O
# Format: biochemical
# CONDITION: RLM, Glutamate/Malate, 2.5 μM
// no unit string in output, number only

// query RCR value for entry COC1=C(OC)C(=O)C(CCCCCCCCCC[P+](c2ccccc2)(c2ccccc2)c2ccccc2)=C(C)C1=O.CS(=O)(=O)[O-] [MitoQ, reference compound]
4.2

// query RCR value for entry O=C(NCCCCCC[P+](c1ccccc1)(c1ccccc1)c1ccccc1)c1cc(O)c(O)c(O)c1.[Br-] [AntiOxBEN2]
4.3

// query RCR value for entry O=C(NCCCCCC[P+](c1ccccc1)(c1ccccc1)c1ccccc1)c1ccc(O)c(O)c1.[Br-] [AntiOxBEN1]
4.9

// query RCR value for entry O=C(CCCCC[P+](c1ccccc1)(c1ccccc1)c1ccccc1)NCCCCCCNC(=O)c1cc(O)c(O)c(O)c1.[Br-] [AntiOxBEN3]
3.9
